src = paper PMC8514817

# Test system: Eco DH5α
# test.context: 48 h
# MBC per entry

[
  {
    "substance": "Ac-WKKVKKVVKKVKKV-NH2 [pepV2]",
    "value.unit": "µg/mL",
    "MBC": 32
  },
  {
    "substance": "Ac-WKKIKKIIKKIKKI-NH2 [pepI2]",
    "value.unit": "µg/mL",
    "MBC": 4
  },
  {
    "substance": "Ac-WKKLKKLLKKLKKLLKKL-NH2 [pepD]",
    "value.unit": "µg/mL",
    "MBC": 8
  },
  {
    "substance": "Ac-WKKLKKLLKKLKKL-NH2 [pepD2]",
    "value.unit": "µg/mL",
    "MBC": 8
  },
  {
    "substance": "Ac-WKKLKKLLKKL-NH2 [pepD3]",
    "value.unit": "µg/mL",
    "MBC": 16
  }
]

---

# Test system: Eco DH5α
# test.context: 48 h
# MIC per entry

[
  {
    "substance": "Ac-WKKIKKIIKKIKKI-NH2 [pepI2]",
    "MIC / µg/mL": 4
  },
  {
    "substance": "Ac-WKKLKKLLKKL-NH2 [pepD3]",
    "MIC / µg/mL": 8
  },
  {
    "substance": "Ac-WKKVKKVVKKVKKV-NH2 [pepV2]",
    "MIC / µg/mL": 32
  },
  {
    "substance": "Ac-WKKLKKLLKKLKKLLKKL-NH2 [pepD]",
    "MIC / µg/mL": 8
  }
]
